# METHOD NOTES: Mean residence time in rat at 2 mg/kg, po
# Type: ADME, organism-based
# Set-up: dose 2 mg/kg, route oral
# APPLIED CONDITIONS: in vivo
Entries annotated with measured MRT

STRUCTURE STRING: CCS(=O)(=O)CCN(C(=O)Cc1ccc(F)c(C(F)(F)F)c1)[C@H](C)c1nc(C2CC2)c(C(F)F)n1-c1ccc(C#N)cc1
MRT [h]: 2.4
//
STRUCTURE STRING: CCS(=O)(=O)CCN(C(=O)Cc1ccc(F)c(C(F)(F)F)c1)[C@H](C)c1nc(C2CC2)cn1-c1ccc(C#N)cc1
MRT [h]: 2.4
//
STRUCTURE STRING: CCS(=O)(=O)CCN(C(=O)Cc1ccc(F)c(C(F)(F)F)c1)[C@H](C)c1nc(C2CC2)c(Cl)n1-c1ccc(C#N)cc1
MRT [h]: 5.4
//
STRUCTURE STRING: CCS(=O)(=O)CCN(C(=O)Cc1ccc(F)c(C(F)(F)F)c1)[C@H](C)c1nc(-c2ccccc2)cn1-c1ccc(C#N)cc1
MRT [h]: 0.9
